Please provide measured kon for the entries that follow.
Molecular target: T1, recombinant hSIRPα (extracellular portion) (human, UniProt P78324 31-373, biotinylated with Sulfo-NHS-LC-LC-Biotin where immobilised on streptavidin sensors)
T1 construct: extracellular domain; The limits aa31-370 are stated for the immunogen; The BLI and HDX text says only 'recombinant hSIRPα' / 'biotinylated hSIRPα'; also called biotinylated hSIRPα
T1 sequence (P78324 31-373): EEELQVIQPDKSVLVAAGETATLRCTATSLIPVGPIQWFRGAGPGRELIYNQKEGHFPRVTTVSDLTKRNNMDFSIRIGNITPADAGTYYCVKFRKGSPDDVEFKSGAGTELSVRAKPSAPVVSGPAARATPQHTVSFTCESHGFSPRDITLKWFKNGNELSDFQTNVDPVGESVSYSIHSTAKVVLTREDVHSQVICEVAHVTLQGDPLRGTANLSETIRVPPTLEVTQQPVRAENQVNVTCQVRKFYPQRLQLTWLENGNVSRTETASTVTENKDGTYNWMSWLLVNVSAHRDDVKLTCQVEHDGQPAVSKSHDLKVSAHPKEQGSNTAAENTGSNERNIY
Test: BLI, biotinylated hSIRPα immobilised on streptavidin biosensors, Nb in solution, global 1:1 fit
Kindly provide the numeric value in M⁻¹ s⁻¹ only, without the unit symbol.

Entry hSIRPα nanobody S41 (VHH, The single assignment S41 = 26 follows only from the listing order; also called Nb S41) VHH: HVQLVESGGGLVQPGGSLRLSCAASGETLDYYAIGYVRQAPGKEREGVSCISSRGDNTNYADSVKGRFTISRDNANNTVYLQMNSLKPEDTAVYYCVAIKDSWQNYYCSVGWVEYDVWGQGTQVTVSS ; kon = 678000

Lookup result for hSIRPα nanobody S45 (VHH, also called Nb S45) VHH: HVQLVESGGGLVQPGGSLRLSCAARGFSFRDSAMSWARQAPGKGLEWVGAIYSDGSTVYEKSVKGRFTISRDNAKNTMYLQMHSLKPEDSARYYCAPKGVVADEGDYSGQGTLVTVSS ; measured kon: 646000

The values you see were collected from patent US20260116970A1.
